# System: Human tumour cells (cell line panel)
# protocol_description: Proliferation assay: cell line panel (crystal violet, 4 days)
# Format: cell-based
# applied_conditions: NCI-H1734, lung cancer, non-small cell, 5000 cells/well, read-out: Result Category, IC50 (mean)
value_kind: IC50

Task item: What measured IC50 goes with Brc1cnn2c(NCc3nc4ccccc4[nH]3)nc(N3CCOCC3)nc12 ?
Reply: ≤ 0.03 µM

----------
# system_under_test: CDK12 (nuclear staining in CAL-120 cells) (Homo sapiens)
# Construct: endogenous in cells; host or cells: CAL-120 human breast cancer cells (DSMZ ACC 459)
# Sequence (Q9NYV4 whole entry): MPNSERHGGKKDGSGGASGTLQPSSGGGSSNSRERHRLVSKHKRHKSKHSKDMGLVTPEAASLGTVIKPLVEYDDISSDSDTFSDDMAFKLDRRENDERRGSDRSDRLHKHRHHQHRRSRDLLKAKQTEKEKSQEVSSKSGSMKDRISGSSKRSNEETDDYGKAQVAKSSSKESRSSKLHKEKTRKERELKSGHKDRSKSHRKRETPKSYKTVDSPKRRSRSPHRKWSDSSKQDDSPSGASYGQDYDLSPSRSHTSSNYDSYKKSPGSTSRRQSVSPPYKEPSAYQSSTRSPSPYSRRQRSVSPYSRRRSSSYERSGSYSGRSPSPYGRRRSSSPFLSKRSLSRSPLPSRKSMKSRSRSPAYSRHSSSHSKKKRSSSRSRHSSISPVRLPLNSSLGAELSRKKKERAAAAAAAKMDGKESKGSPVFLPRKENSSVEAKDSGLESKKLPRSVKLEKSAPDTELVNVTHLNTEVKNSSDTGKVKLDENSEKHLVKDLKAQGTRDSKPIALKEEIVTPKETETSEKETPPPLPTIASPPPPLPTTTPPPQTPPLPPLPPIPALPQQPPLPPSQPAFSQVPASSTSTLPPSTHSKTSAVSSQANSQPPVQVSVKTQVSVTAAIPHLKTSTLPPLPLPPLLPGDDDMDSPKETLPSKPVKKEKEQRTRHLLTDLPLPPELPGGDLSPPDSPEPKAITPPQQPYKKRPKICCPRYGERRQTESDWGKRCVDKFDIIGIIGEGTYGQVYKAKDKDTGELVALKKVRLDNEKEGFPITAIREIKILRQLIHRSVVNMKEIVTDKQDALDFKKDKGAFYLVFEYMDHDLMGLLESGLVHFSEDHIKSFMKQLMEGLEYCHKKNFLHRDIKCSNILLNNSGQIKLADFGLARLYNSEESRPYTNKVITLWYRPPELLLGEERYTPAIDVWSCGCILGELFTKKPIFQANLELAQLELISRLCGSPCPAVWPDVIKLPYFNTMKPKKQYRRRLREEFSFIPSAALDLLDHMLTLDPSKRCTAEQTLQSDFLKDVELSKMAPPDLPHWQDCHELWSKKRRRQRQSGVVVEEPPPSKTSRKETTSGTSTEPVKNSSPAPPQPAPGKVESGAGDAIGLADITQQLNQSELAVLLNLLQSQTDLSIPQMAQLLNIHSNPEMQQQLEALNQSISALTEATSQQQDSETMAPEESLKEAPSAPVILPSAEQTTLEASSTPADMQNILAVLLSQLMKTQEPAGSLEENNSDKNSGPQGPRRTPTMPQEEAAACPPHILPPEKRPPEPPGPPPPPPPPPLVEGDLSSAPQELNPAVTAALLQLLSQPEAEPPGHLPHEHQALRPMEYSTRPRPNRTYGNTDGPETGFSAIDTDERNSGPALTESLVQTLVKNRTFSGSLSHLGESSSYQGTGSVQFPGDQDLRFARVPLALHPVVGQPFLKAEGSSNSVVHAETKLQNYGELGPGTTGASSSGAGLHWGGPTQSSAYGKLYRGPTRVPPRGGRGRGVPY
# Sequence (O75909 whole entry partner): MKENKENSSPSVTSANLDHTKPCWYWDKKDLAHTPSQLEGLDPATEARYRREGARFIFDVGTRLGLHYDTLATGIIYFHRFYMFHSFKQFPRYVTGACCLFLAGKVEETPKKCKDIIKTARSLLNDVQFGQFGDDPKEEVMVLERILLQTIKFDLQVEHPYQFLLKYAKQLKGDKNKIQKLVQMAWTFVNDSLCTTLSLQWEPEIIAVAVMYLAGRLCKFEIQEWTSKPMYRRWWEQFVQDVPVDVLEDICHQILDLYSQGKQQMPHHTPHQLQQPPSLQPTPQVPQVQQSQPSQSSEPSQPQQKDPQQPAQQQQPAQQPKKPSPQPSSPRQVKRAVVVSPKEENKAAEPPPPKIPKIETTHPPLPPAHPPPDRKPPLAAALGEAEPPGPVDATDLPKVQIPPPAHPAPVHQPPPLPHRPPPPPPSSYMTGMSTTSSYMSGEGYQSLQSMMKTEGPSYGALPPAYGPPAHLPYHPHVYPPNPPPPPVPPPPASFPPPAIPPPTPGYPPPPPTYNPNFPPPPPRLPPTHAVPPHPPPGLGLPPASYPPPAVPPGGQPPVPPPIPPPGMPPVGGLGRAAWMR
# protocol_description: CDK12 nuclear protein level: immunofluorescence/high content analysis (CAL-120)
# Assay type: cell-based
# applied_conditions: ratio of IC50 CDK12 high ATP kinase assay to DC50 CDK12 degradation (IF, CAL-120)
value_kind: (IC50 CDK12 high ATP) to (Degradation DC50 CDK12) ratio
Hey, just send me the number, nothing else.

Worked cases, answers included:
>>> print(df.to_string())
                                   molecule  test_value
0  CN1CCN(c2nc(NCc3nc4ccccc4[nH]3)n3ncc(Br)c3n2)C(CO)C1 (single isomer, unassigned) [Example 280]         678
1  C[C@@H]1CN(c2nc(NCc3nc4ccccc4[nH]3)n3ncc(Br)c3n2)CCN1       10872
2  Fc1ccc2[nH]c(CNc3nc(N4CCN5CCC4CC5)nc4c(C(F)(F)F)cnn34)nc2c1F         306

Task item: Find (IC50 CDK12 high ATP) to (Degradation DC50 CDK12) ratio (CDK12 (nuclear staining in CAL-120 cells) (Homo sapiens)) for the entry Brc1cnn2c(NCc3ncc(-c4ccccn4)[nH]3)nc(N3CCOCC3)nc12
Reply: 1092

Task item: Likewise for CN1CCN(c2nc(NCc3nc4c(F)c(Cl)ccc4[nH]3)n3ncc(C4CC4)c3n2)CC1 ?
Reply: 1263

Task item: Please give the result for Fc1cc2nc(CNc3nc(N4C[C@H]5CC[C@@H](C4)N5)nc4c(C5CC5)cnn34)[nH]c2cc1Cl too.
Reply: 419

Task item: Same question for Brc1cnn2c(NCc3nc4ccccc4[nH]3)nc(N3CCNCC3)nc12 please.
Reply: 7939

Task item: Also CCN(C)c1nc(NCc2nc3ccccc3[nH]2)n2ncc(Br)c2n1 ?
Reply: 73

Task item: And then CN1CCN(c2nc(NCc3nc4c(F)cccc4[nH]3)n3ncc(Cl)c3n2)CC1.O=CO , what is it?
Reply: 1673

Task item: Entry to check: Fc1cccc2[nH]c(CNc3nc(N4C[C@@H]5CCCN[C@@H]5C4)nc4c(C5CC5)cnn34)nc12
Reply: 9192

Task item: Now try Fc1cccc2[nH]c(CNc3nc(N4CCOCC4)nc4c(C(F)(F)F)cnn34)nc12 .
Reply: 64

----------
# system_under_test: CDK12/CycK (Homo sapiens)
# Sequence (Q9NYV4 with tags, fused parts or gaps): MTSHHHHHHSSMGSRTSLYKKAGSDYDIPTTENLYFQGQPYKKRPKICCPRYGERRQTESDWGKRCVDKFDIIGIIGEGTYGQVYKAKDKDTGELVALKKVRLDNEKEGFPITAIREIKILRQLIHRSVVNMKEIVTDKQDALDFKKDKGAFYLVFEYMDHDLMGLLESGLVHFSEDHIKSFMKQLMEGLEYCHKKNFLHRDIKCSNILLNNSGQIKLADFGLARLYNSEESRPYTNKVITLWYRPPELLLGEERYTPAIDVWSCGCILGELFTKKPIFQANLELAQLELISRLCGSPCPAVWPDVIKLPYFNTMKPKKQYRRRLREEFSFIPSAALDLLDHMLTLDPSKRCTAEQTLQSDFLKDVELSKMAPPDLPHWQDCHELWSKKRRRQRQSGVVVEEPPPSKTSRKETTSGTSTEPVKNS
# Sequence (O75909 1-300 partner limits assumed): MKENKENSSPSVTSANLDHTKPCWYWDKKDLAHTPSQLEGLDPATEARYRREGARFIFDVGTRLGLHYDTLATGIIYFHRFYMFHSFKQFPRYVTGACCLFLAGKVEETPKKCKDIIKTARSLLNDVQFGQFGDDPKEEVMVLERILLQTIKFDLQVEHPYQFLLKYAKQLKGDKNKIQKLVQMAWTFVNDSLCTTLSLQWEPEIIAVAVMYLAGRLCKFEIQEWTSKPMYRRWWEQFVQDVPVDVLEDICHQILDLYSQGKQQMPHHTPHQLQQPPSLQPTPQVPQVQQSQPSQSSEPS
# protocol_description: CDK12/CycK high ATP kinase assay (TR-FRET, 2 mM ATP)
# applied_conditions: 2 mM ATP (high ATP); median; read-out: CDK12/CyclinK, 2 mM ATP (high ATP), IC50-[mol/l] (median)
value_kind: log10 IC50 (log10 of the value in µM)
Please keep in mind that the values are log10 of IC50 expressed in µM.

>>> print(df.to_string())
                                   compound  test_value
0  Fc1cc2nc(CNc3nc(N4CCOCC4)nc4c(C5CC5)cnn34)[nH]c2cc1Cl        0.20
1  CCNc1nc(NCc2nc(-c3ccc(C)cc3)c[nH]2)n2ncc(Br)c2n1        0.51
2  Brc1cnn2c(NCc3nc4ccccc4[nH]3)nc(N3C[C@H]4CC[C@@H]3CN4)nc12 (single isomer, unassigned) [Example 316]        0.47
3  Fc1ccc2[nH]c(CNc3nc(N4CCOCC4)nc4c(Br)cnn34)nc2c1F       -0.14
4  Fc1cccc2[nH]c(CNc3nc(N4CCN5CCC4CC5)nc4c(C(F)(F)F)cnn34)nc12        0.20

Task item: Look at this compound and give its reported log10 IC50. FC(F)(F)Oc1ccc2[nH]c(CNc3nc(N4C[C@H]5CC[C@@H](C4)N5)nc4c(Br)cnn34)nc2c1
Reply: -0.08

Task item: Request: Brc1cnn2c(NCc3nc4ccccc4[nH]3)nc(N3CC4CCC(C3)N4)nc12
Reply: 0.72
